These entries and their values trace back to patent US11028167.

# target system: SARS-CoV-2 Receptor Binding Domain (RBD) protein (SARS-CoV-2, UniProt P0DTC2 319-541)
# experiment description: SPR, scFv captured by anti-V5, RBD analyte
Entries whose kon is below 100000 M⁻¹ s⁻¹ take yes; entries at or above 100000 M⁻¹ s⁻¹ take no.

binder	group
COVID19_R02_D07 (scFv, V domains shown) VH: QVQLVQSGAEVKKPGASVKVSCKASGYTFTENEMHWVRQAPGQGLEWMGIINPSGGSTSYAQKFQGRVTMTRDTSTSTVYMELSSLRSEDTAVYYCTREGPPQLLRTLDYWGQGTLVTVSS VL: DIQMTQSPSSLSASVGDRVTITCRASQSISSYLNWYQQKPGKAPKLLIYHTSNLETGVPSRFSGSGSGTDFTLTISSLQPEDFATYYCQQSYSFPATTFGGGTKVEIKR	yes
COVID19_P06_C09 (scFv, V domains shown) VH: QVQLVQSGAEVKKPGASVKVSCKASGYTFTSYEINWVRQAPGQGLEWMGVINPSGGHTNYAQKFQGRVTMTRDTSTSTVYMELSSLRSEDTAVYYCTREGIPQLAGTLDYWGQGTLVTVSS VL: DIQMTQSPSSLSASVGDRVTITCRASQSISGYLNWYQQKPGKAPKLLIYAASSLESGVPSRFSGSGSGTDFTLTISSLQPEDFATYYCQQGYTTPRTFGGGTKVEIKR	no
COVID19_R02_F08 (scFv, V domains shown) VH: QVQLVQSGAEVKKPGASVKVSCKASGYTFGNYAINWVRQAPGQGLEWMGAIYPGNSDTTYNQKFQGRVTMTRDTSTSTVYMELSSLRSEDTAVYYCARDTVMGGMDVWGQGTLVTVSS VL: DIQMTQSPSSLSASVGDRVTITCRASQEISGYLSWYQQKPGKAPKLLIYAASSLQSGVPSRFSGSGSGTDFTLTISSLQPEDFATYYCQQYVSYPWTFGGGTKVEIKR	yes

Challenge: Regarding COVID19_P06_G02 (scFv, V domains shown) VH: QVQLVQSGAEVKKPGASVKVSCKASGYTFTSHDINWVRQAPGQGLEWMGMINPSGGYTSYAQNFQGRVTMTRDTSTSTVYMELSSLRSEDTAVYYCTREGIPALLRTLDYWGQGTLVTVSS VL: DIQMTQSPSSLSASVGDRVTITCRASQGIRNDLGWYQQKPGKAPKLLIYAASSLQSGVPSRFSGSGSGTDFTLTISSLQPEDFATYYCQQTYTTPYTFGGGTKVEIKR , kindly confirm whether its kon is beneath 100000 M⁻¹ s⁻¹.
Response given: no

Challenge: Regarding COVID19_P06_F03 (scFv, V domains shown) VH: QVQLVQSGAEVKKPGASVKVSCKASGYTFTSYSMHWVRQAPGQGLEWMGAIYPGNSDTTYAQKFQGRVTMTRDTSTSTVYMELSSLRSEDTAVYYCTLDGIPQLLRTLDYWGQGTLVTVSS VL: DIQMTQSPSSLSASVGDRVTITCRASQSISSYLNWYQQKPGKAPKLLIYGVSSLHSGVPSRFSGSGSGTDFTLTISSLQPEDFATYYCLQYVSYPWTFGGGTKVEIKR , kindly confirm whether its kon is beneath 100000 M⁻¹ s⁻¹.
Response given: no
